Data origin: ChEMBL document CHEMBL5724914

# Experiment: The drug is tested on WLS-090 corresponding to human gut metagenome with ENA study accession number: PRJEB37062 and ENA sample accession number: ERS12561753 for biotransformation under anaerobic condition. The drug concentrations were measured over 9 timepoints collected between 0 and 24 hours of incubation by liquid-chromatography-coupled mass spectrometry (LC–MS); further: call rule not given here
# Condition parameters: 2 µM
Parameter: Bacterial Biotransformation

Example molecules with recorded Bacterial Biotransformation:
// query Data request, read-out Bacterial Biotransformation, for OC(CCN1CCCCC1)(c1ccccc1)C1CCCCC1 (stereo not drawn)
// result Compound metabolized

// query # repeat for "CCCc1nc2c(C)cc(-c3nc4ccccc4n3C)cc2n1Cc1ccc(-c2ccccc2C(=O)O)cc1"
// result Compound metabolized

// query # repeat for "N#Cc1ccc(C(c2ccc(C#N)cc2)n2cncn2)cc1"
// result Compound NOT metabolized

// query # repeat for CC(C)NCC(O)COc1ccc(COCCOC(C)C)cc1.CC(C)NCC(O)COc1ccc(COCCOC(C)C)cc1.O=C(O)/C=C/C(=O)O (stereo not drawn) [BISOPROLOL FUMARATE]
// result Compound metabolized

// query # repeat for Br.CN(C)CCCC1(c2ccc(F)cc2)OCc2cc(C#N)ccc21 (stereo not drawn) [CITALOPRAM HYDROBROMIDE]
// result Compound metabolized

// query # repeat for CCN(CC)CCNC(=O)c1cc(Cl)c(N)cc1OC [METOCLOPRAMIDE]
// result Compound NOT metabolized

// query # repeat for CN1CCOC(c2ccccc2)c2ccccc2C1 (stereo not drawn)
// result Compound metabolized

// query # repeat for NS(=O)(=O)c1cc2c(cc1Cl)N=C(CSCc1ccccc1)NS2(=O)=O [BENZTHIAZIDE]
// result Compound NOT metabolized

// query # repeat for "CN/C(=N/CCSCc1nc[nH]c1C)NC#N"
// result Compound metabolized

// query # repeat for CCN(CC)C(C)CN1c2ccccc2Sc2ccccc21 (stereo not drawn)
// result Compound metabolized

Next:
// query Data request, read-out Bacterial Biotransformation, for "Fc1ccc([C@@H]2CCNC[C@H]2COc2ccc3c(c2)OCO3)cc1"
// result Compound metabolized

// query # repeat for "Nc1c2c(nc3ccccc13)CCCC2"
// result Compound metabolized

// query # repeat for "COc1ccc2c(c1OC)C(=O)O[C@@H]2[C@H]1c2c(cc3c(c2OC)OCO3)CCN1C"
// result Compound metabolized

* * *

# Condition parameters: human gut metagenome, 24 h, 2 µM
Parameter: Bacterial Biotransformation

// query Data request, read-out Bacterial Biotransformation, for CN1C(C(=O)Nc2ccccn2)=C(O)c2sccc2S1(=O)=O [TENOXICAM]
// result Compound NOT metabolized

// query # repeat for O=C(O)COCCN1CCN(C(c2ccccc2)c2ccc(Cl)cc2)CC1 (stereo not drawn) [CETIRIZINE]
// result Compound metabolized

// query # repeat for CC(C)N(CCC(C(N)=O)(c1ccccc1)c1ccccn1)C(C)C.O=P(O)(O)O (stereo not drawn) [DISOPYRAMIDE PHOSPHATE]
// result Compound NOT metabolized

// query # repeat for COc1c2occc2cc2ccc(=O)oc12 [METHOXSALEN]
// result Compound metabolized

// query # repeat for Br.CN(C)CCCC1(c2ccc(F)cc2)OCc2cc(C#N)ccc21 (stereo not drawn) [CITALOPRAM HYDROBROMIDE]
// result Compound metabolized

// query # repeat for COc1ccccc1OCC(O)CN1CCN(CC(=O)Nc2c(C)cccc2C)CC1 (stereo not drawn) [RANOLAZINE]
// result Compound NOT metabolized

// query # repeat for COc1ccc2[nH]c([S+]([O-])Cc3ncc(C)c(OC)c3C)nc2n1 (stereo not drawn) [TENATOPRAZOLE]
// result Compound metabolized

// query # repeat for COCCc1ccc(OCC(O)CNC(C)C)cc1.COCCc1ccc(OCC(O)CNC(C)C)cc1.O=C(O)C(O)C(O)C(=O)O (stereo not drawn) [METOPROLOL TARTRATE]
// result Compound NOT metabolized

Next:
// query Data request, read-out Bacterial Biotransformation, for Clc1ccc(Cn2c(CN3CCCC3)nc3ccccc32)cc1 [CLEMIZOLE]
// result Compound NOT metabolized

// query # repeat for "CN1CC(=O)N2[C@H](c3ccc4c(c3)OCO4)c3[nH]c4ccccc4c3C[C@@H]2C1=O"
// result Compound metabolized

* * *

# Condition parameters: human gut metagenome, 24 h, 2 µM
Parameter: Bacterial Biotransformation

Example compounds with recorded Bacterial Biotransformation:
// query Data request, read-out Bacterial Biotransformation, for C=CCN1CC[C@]23c4c5ccc(O)c4O[C@H]2C(=O)CC[C@@]3(O)[C@H]1C5 [NALOXONE]
// result Compound NOT metabolized

// query # repeat for "CCCc1nc2c(C)cc(-c3nc4ccccc4n3C)cc2n1Cc1ccc(-c2ccccc2C(=O)O)cc1"
// result Compound metabolized

// query # repeat for Cc1nc2n(c(=O)c1CCN1CCC(c3noc4cc(F)ccc34)CC1)CCCC2 [RISPERIDONE]
// result Compound metabolized

// query # repeat for "CN1CCc2c(c3ccccc3n2Cc2ccccc2)C1.CN1CCc2c(c3ccccc3n2Cc2ccccc2)C1.O=S(=O)(O)c1cccc2c(S(=O)(=O)O)cccc12"
// result Compound metabolized

// query # repeat for CC(C)(Oc1ccc(CCNC(=O)c2ccc(Cl)cc2)cc1)C(=O)O [BEZAFIBRATE]
// result Compound metabolized

Next:
// query Data request, read-out Bacterial Biotransformation, for NC(=O)N1c2ccccc2CC(=O)c2ccccc21 [OXCARBAZEPINE]
// result Compound metabolized

// query # repeat for CNS(=O)(=O)Cc1ccc2[nH]cc(CCN(C)C)c2c1.O=C(O)CCC(=O)O [SUMATRIPTAN SUCCINATE]
// result Compound NOT metabolized

// query # repeat for O=C(CCCN1CCC(O)(c2ccc(Cl)cc2)CC1)c1ccc(F)cc1 [HALOPERIDOL]
// result Compound NOT metabolized

* * *

# Experiment: The drug is tested on WLS-086 corresponding to human gut metagenome with ENA study accession number: PRJEB37062 and ENA sample accession number: ERS12561752 for biotransformation under anaerobic condition. The drug concentrations were measured over 9 timepoints collected between 0 and 24 hours of incubation by liquid-chromatography-coupled mass spectrometry (LC–MS)
# Condition parameters: 2 µM
Parameter: Bacterial Biotransformation

// query Data request, read-out Bacterial Biotransformation, for Cc1ccc(S(=O)(=O)NC(=O)NN2CC3CCCC3C2)cc1 (centres undefined) [GLICLAZIDE]
// result Compound metabolized

// query # repeat for Nc1nc2ccc(OC(F)(F)F)cc2s1 [RILUZOLE]
// result Compound metabolized

// query # repeat for CCCC1O[C@@H]2C[C@H]3[C@@H]4CCC5=CC(=O)C=C[C@]5(C)[C@H]4[C@@H](O)C[C@]3(C)[C@]2(C(=O)CO)O1 (some centres undefined) [BUDESONIDE]
// result Compound metabolized

* * *

# Experiment: The drug is tested on Z-005 corresponding to metagenome with ENA study accession number: PRJEB37062 and ENA sample accession number: ERS12561805 for biotransformation under anaerobic condition. The drug concentrations were measured over 9 timepoints collected between 0 and 24 hours of incubation by liquid-chromatography-coupled mass spectrometry (LC–MS)
# Condition parameters: 2 µM
Parameter: Bacterial Biotransformation

Example molecules with recorded Bacterial Biotransformation:
// query Data request, read-out Bacterial Biotransformation, for "CC(C)(C#N)c1cc(Cn2cncn2)cc(C(C)(C)C#N)c1"
// result Compound NOT metabolized

// query # repeat for COCCc1ccc(OCC(O)CNC(C)C)cc1.COCCc1ccc(OCC(O)CNC(C)C)cc1.O=C(O)C(O)C(O)C(=O)O (stereo not drawn) [METOPROLOL TARTRATE]
// result Compound NOT metabolized

// query # repeat for CC(=O)OCC(=O)[C@@]1(O)[C@@H](C)C[C@H]2[C@@H]3CCC4=CC(=O)C=C[C@]4(C)[C@@]3(F)[C@@H](O)C[C@@]21C [BETAMETHASONE ACETATE]
// result Compound metabolized

// query # repeat for "OC(Cn1cncn1)(Cn1cncn1)c1ccc(F)cc1F"
// result Compound NOT metabolized

// query # repeat for CC(C)NCC(O)c1ccc(NS(C)(=O)=O)cc1 (stereo not drawn)
// result Compound NOT metabolized

Next:
// query Data request, read-out Bacterial Biotransformation, for "CCN(CC)C(=O)/C(C#N)=C/c1cc(O)c(O)c([N+](=O)[O-])c1"
// result Compound metabolized

// query # repeat for "Nc1ccc(/N=N/c2ccccc2)c(N)n1"
// result Compound metabolized

// query # repeat for NC(=O)N1c2ccccc2CC(=O)c2ccccc21 [OXCARBAZEPINE]
// result Compound metabolized

* * *

# Experiment: The drug is tested on Z-001 corresponding to mouse gut metagenome with ENA study accession number: PRJEB37062 and ENA sample accession number: ERS12561801 for biotransformation under anaerobic condition. The drug concentrations were measured over 9 timepoints collected between 0 and 24 hours of incubation by liquid-chromatography-coupled mass spectrometry (LC–MS)
# Condition parameters: 2 µM
Parameter: Bacterial Biotransformation

Example compounds with recorded Bacterial Biotransformation:
// query Data request, read-out Bacterial Biotransformation, for "CCCCC(=O)N(Cc1ccc(-c2ccccc2-c2nnn[nH]2)cc1)[C@H](C(=O)O)C(C)C"
// result Compound NOT metabolized

// query # repeat for COc1ccccc1N1CCN(CC(O)COc2cccc3ccccc23)CC1 (stereo not drawn) [NAFTOPIDIL]
// result Compound NOT metabolized

// query # repeat for CC(CN1c2ccccc2Sc2ccccc21)N(C)C (stereo not drawn) [PROMETHAZINE]
// result Compound NOT metabolized

// query # repeat for Nc1ccc(/N=N/c2ccccc2)c(N)n1 [PHENAZOPYRIDINE]
// result Compound metabolized

// query # repeat for CCCCCCOC(=O)/N=C(/N)c1ccc(NCc2nc3cc(C(=O)N(CCC(=O)OCC)c4ccccn4)ccc3n2C)cc1.CS(=O)(=O)O [DABIGATRAN ETEXILATE MESYLATE]
// result Compound NOT metabolized

Next:
// query Data request, read-out Bacterial Biotransformation, for CO[C@]12C[C@@H](COC(=O)c3cncc(Br)c3)CN(C)[C@@H]1Cc1cn(C)c3cccc2c13 [NICERGOLINE]
// result Compound metabolized

// query # repeat for CC(C)NCC(O)COc1ccc(COCCOC(C)C)cc1.CC(C)NCC(O)COc1ccc(COCCOC(C)C)cc1.O=C(O)/C=C/C(=O)O (stereo not drawn) [BISOPROLOL FUMARATE]
// result Compound metabolized

// query # repeat for NC12CC3CC(CC(C3)C1)C2 [AMANTADINE]
// result Compound NOT metabolized
